Test: CellTiter-Glo cell viability assay, HEK293T WT
Conditions: human, HEK293T WT cells, HEK293T WT Cell viability (% of controll), 1.0 μM; 72 h; dose–response, individual replicates
Parameter Measured: viability at 72 h, 1 µM (%)
State just the number; it will be interpreted in %.

Prompt: Looking for the measured viability at 72 h, 1 µM of CNCC#Cc1cccc(CN2C(=O)C3=C(CCN(Cc4ccc(-n5cc(-c6ccccc6)nn5)cc4)C3)N3CCN=C23)c1 [38b] , can you help?
Completion: 109

---

Assay: CellTiter-Glo cell viability assay, HEK293T WT
Conditions: human, HEK293T WT cells, HEK293T WT Cell viability (% of controll), 4.0 μM; 72 h; dose–response, individual replicates
Parameter Measured: viability at 72 h, 4 µM (%)
Answer format: numeric, % implied, no suffix.

Prompt: State the recorded viability at 72 h, 4 µM for this entry: CNCC#Cc1cccc(CN2C(=O)C3=C(CCN(Cc4ccc(-n5cc(-c6ccccc6)nn5)cc4)C3)N3CCN=C23)c1 [38b]
Completion: 0

---

Measured viability at 72 h, 0.7 µM, listed per entry.
Assay: CellTiter-Glo luminescent cell viability assay, primary fibroblasts
Conditions: human, primary skin fibroblasts (non-tumorous), Primer fibroblast Cell viability (% of controll), 0.7 μM; 72 h; dose–response, individual replicates
State the answer as a number, implicitly in %.

CNCC#Cc1cccc(CN2C(=O)C3=C(CCN(Cc4ccc(-n5cc(-c6ccc(F)cc6)nn5)cc4)C3)N3CCN=C23)c1 [43b]
96

Prompt: // query viability at 72 h, 0.7 µM value for entry CNCC#Cc1cccc(CN2C(=O)C3=C(CCN(Cc4ccc(-n5cc(-c6ccccc6)nn5)cc4)C3)N3CCN=C23)c1 [38b]
Completion: 103

Prompt: Query: viability at 72 h, 0.7 µM; subject: CNCC#Cc1cccc(CN2C(=O)C3=C(CCN(Cc4ccc(-n5cc(-c6cc(F)cc(F)c6)nn5)cc4)C3)N3CCN=C23)c1 [43c]
Completion: 91

Prompt: Query: viability at 72 h, 0.7 µM; subject: CNCC#Cc1cccc(CN2C(=O)C3=C(CCN(Cc4ccc(-n5cc(-c6cccc(F)c6)nn5)cc4)C3)N3CCN=C23)c1 [43a]
Completion: 99

Prompt: Endpoint output: viability at 72 h, 0.7 µM of NCC#Cc1ccc(CN2C(=O)C3=C(CCN(Cc4ccc(-n5cc(-c6ccccc6)nn5)cc4)C3)N3CCN=C23)cc1 [I/B, reference compound] . Value?
Completion: 93

---

Test: CellTiter-Glo luminescent cell viability assay, primary fibroblasts
Conditions: human, primary skin fibroblasts (non-tumorous), Primer fibroblast Cell viability (% of controll), 3.4 μM; 72 h; dose–response, individual replicates
Listing of recorded viability at 72 h, 3.4 µM by entry.
Write the answer as a number in %, unit excluded.

CNCC#Cc1cccc(CN2C(=O)C3=C(CCN(Cc4ccc(-n5cc(-c6cc(F)cc(F)c6)nn5)cc4)C3)N3CCN=C23)c1 [43c]
80

Prompt: What value of measured viability at 72 h, 3.4 µM is listed for CNCC#Cc1cccc(CN2C(=O)C3=C(CCN(Cc4ccc(-n5cc(-c6cccc(F)c6)nn5)cc4)C3)N3CCN=C23)c1 [43a] ?
Completion: 35

Prompt: Dear colleague, I am looking for the recorded viability at 72 h, 3.4 µM of the following compound: CNCC#Cc1cccc(CN2C(=O)C3=C(CCN(Cc4ccc(-n5cc(-c6ccccc6)nn5)cc4)C3)N3CCN=C23)c1 [38b]
Completion: 112

Prompt: Could you share which viability at 72 h, 3.4 µM value was measured for NCC#Cc1ccc(CN2C(=O)C3=C(CCN(Cc4ccc(-n5cc(-c6ccccc6)nn5)cc4)C3)N3CCN=C23)cc1 [I/B, reference compound] ?
Completion: 101
